# ASSAYED TARGET: ABCD1 (Homo sapiens, UniProt P33897)
# Construct: profiled in 60 diverse cancer cell lines (the NCI-60) using real-time RT-PCR; endogenous in cells; host or cells: NCI-60 human cancer cell lines
# Sequence (P33897 whole entry): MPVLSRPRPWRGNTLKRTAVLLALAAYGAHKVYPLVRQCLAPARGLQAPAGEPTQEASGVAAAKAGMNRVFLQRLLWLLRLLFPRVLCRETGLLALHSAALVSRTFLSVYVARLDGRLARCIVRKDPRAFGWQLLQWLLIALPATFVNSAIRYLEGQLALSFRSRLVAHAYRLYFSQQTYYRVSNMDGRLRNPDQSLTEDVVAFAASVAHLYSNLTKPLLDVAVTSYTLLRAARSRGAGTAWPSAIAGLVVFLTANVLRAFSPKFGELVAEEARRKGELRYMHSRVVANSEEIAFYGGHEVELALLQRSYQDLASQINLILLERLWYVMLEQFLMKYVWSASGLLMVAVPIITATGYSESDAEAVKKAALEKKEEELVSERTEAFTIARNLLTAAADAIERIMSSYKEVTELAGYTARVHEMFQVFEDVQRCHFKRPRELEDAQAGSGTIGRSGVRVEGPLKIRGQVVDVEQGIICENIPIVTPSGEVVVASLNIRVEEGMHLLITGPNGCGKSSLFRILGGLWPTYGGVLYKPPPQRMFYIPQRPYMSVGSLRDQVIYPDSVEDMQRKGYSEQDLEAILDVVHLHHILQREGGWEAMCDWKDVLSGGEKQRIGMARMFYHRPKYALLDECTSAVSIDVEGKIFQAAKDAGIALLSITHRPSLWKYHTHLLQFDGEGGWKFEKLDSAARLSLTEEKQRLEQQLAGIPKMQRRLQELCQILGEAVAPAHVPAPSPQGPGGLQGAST
# RUN DESCRIPTION: Correlation of ABCD1 expression with drug sensitivity across the NCI-60
# Format: cell-based
# CONDITION DESCRIPTION: Pearson correlation of ABCD1 expression with sensitivity of the 60 cell lines; 1429 compounds; inverse, p < 0.0001
MEASURED METRIC: Correlation

Below, 2 compounds whose answers are already recorded.
>  <COMPOUND>
NC(=O)c1[nH]nc([C@@H]2O[C@H](CO)[C@@H](O)[C@H]2O)c1O [NSC 143095]

>  <Correlation>
−0.5337

$$$$
>  <COMPOUND>
CCN(CC)CCn1ccc(=O)c2cc3c(=O)ccn(CCN(CC)CC)c3c(C)c21 [NSC 645161]

>  <Correlation>
−0.5134

$$$$

Proceeding to the next compound to report its Correlation.
Exercise: Identify measured Correlation corresponding to COc1ccc(NC(=S)N/N=C2\C(=O)Nc3c(Cl)cc(Cl)cc32)cc1 [NSC 73306]
Solution: −0.6029
